# System: THRa:RXRa (NR concentration 90 nM, RXRa partner concentration 90 nM)
# Protocol summary: PBM binding z-score (relative to random genomic background probes); higher = stronger binding; sequences stand for … in GC…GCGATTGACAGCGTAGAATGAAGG
Please respond with reported PBM binding z-score for every item in the list.
Give a plain numeric answer without units written out.

Entry GCTGCTAGGGCAGGTTGGTCAGCTAACGGGTACG needs its PBM binding z-score filled in; supply it.
-0.443

Entry GCTTGTAGATCAAGGTTCAGAAAGACTAAGCTAA needs its PBM binding z-score filled in; supply it.
-0.139

Entry CCATACGGGTCAAGGTTATAGCACGGGTGGTACG needs its PBM binding z-score filled in; supply it.
2.85

Entry TAGGCTAGGTCATGGGCCAGTATACCACGCGAAC needs its PBM binding z-score filled in; supply it.
3.11

Entry TCTATTAGTTGGAGGGCAACCGACGAGTCCGTTT needs its PBM binding z-score filled in; supply it.
0.528

Entry CCGACTGGGGCAAGGTGACCATAACGCACAGCCA needs its PBM binding z-score filled in; supply it.
0.718

Entry CCTGCTAGGTTATGGTCAGCTAATCTACAGTATG needs its PBM binding z-score filled in; supply it.
0.383

Entry CCGACTGGGGCACAGGTTACCATACTCAGTACGA needs its PBM binding z-score filled in; supply it.
0.272

Entry ATATTTAGGTTACATCCGGGTCATTCAGGCTATG needs its PBM binding z-score filled in; supply it.
4.1

Entry AGTAGTTGGTCAGCTGAGGTCACACACAATTCGG needs its PBM binding z-score filled in; supply it.
4.88

Entry CCAGACAGGTGAGAAGGTAACTTAGCCTCGATTA needs its PBM binding z-score filled in; supply it.
0.524

Entry CTACCAAGGTGAACAAGGTCGTTCATTACTATTC needs its PBM binding z-score filled in; supply it.
3.56

Entry CCTAGTTGGTCAAGGACACACACGCTATAGGTAC needs its PBM binding z-score filled in; supply it.
2.95

Entry ATCTCTAGGTAACAAATTCAGTGAAAGAGAGGAC needs its PBM binding z-score filled in; supply it.
1.02

Entry TCTATTAGTTGAAGGGCAACCGTCGAGTCCGTTT needs its PBM binding z-score filled in; supply it.
0.234

Entry CGTCCAAGGTCAGCAGGTCAGTGACAGCGACGTG needs its PBM binding z-score filled in; supply it.
3.87

Entry TCATATAGGAAAACAGGTGAAAGTCCGTAAGTTA needs its PBM binding z-score filled in; supply it.
0.338

Entry AGTCAAAGTTCAGGACGAGGTAACGAAAAGCACG needs its PBM binding z-score filled in; supply it.
3.75

Entry CCGACTGGGGCTAGGTTACCATAACGCACAGCCA needs its PBM binding z-score filled in; supply it.
0.173

Entry GCTATTAGTTGAAAGGGCAACCGAATGATTCTCG needs its PBM binding z-score filled in; supply it.
0.664

Entry CCGACTGGGGCAAGGGTACCATAACGCACAGCCA needs its PBM binding z-score filled in; supply it.
-0.0335

Entry CCTAGCAGGCCAGGGTTACTCAAGCATTTCGCTT needs its PBM binding z-score filled in; supply it.
0.382

Entry ATCTCTAGGTAACCAGGTTCAGTGAATGCCGAAC needs its PBM binding z-score filled in; supply it.
1.33

Entry CCTTACGGGTCACTAGGTTATAGCACGACGAGCG needs its PBM binding z-score filled in; supply it.
2.29

Entry CCTAGTCGGTCAGGAGGTCACACACCGGATATGA needs its PBM binding z-score filled in; supply it.
3.37

Entry TCTTGTAGATCAATAGAGGTTCAGAAAGTGCGCT needs its PBM binding z-score filled in; supply it.
0.501

Entry CCTATCAGGCCAATCTGGGTCACTCAAGGCTTGA needs its PBM binding z-score filled in; supply it.
4.02

Entry CAAACTAGGTTAAGGTCAAAGTCGGTTTGTGCCA needs its PBM binding z-score filled in; supply it.
4.54

Entry CGAACTAGGTCATTGACAGGACAGTGAATAGTAA needs its PBM binding z-score filled in; supply it.
2.98

Entry TCTATTTGGTCACGGAGGTCACACACGACGGGTA needs its PBM binding z-score filled in; supply it.
3.82

Entry ACTAGTAGTTGAGACGAGGGCAACCGATAGGTTG needs its PBM binding z-score filled in; supply it.
2.71

Entry GTACCGAGGTGAATAGGTCGTTGATGAGTAGGCG needs its PBM binding z-score filled in; supply it.
2.15

Entry CGAACTAGGTCATCCAGGACAGTGGATACATTGA needs its PBM binding z-score filled in; supply it.
3.74

Entry TTAGCAAGGTGAAGGTCGTTGATCCCTCTGTAGA needs its PBM binding z-score filled in; supply it.
2.03

Entry CATACTGGGTCAGCTAGGCCAGAGTAGGGACGGC needs its PBM binding z-score filled in; supply it.
1.53

Entry ATCGAAAGGTCGAGGTGCGTATAGAGAAAGGGAA needs its PBM binding z-score filled in; supply it.
1.77

Entry TCGAGTAGGTTAGTAGGGGCATTCAGCCAACATA needs its PBM binding z-score filled in; supply it.
0.542

Entry TCTATTTGGTCAAAGGTCACACACTCGAAATGCG needs its PBM binding z-score filled in; supply it.
4.24

Entry TGTCAAAGTTCAAAGGTAACGTTAGTATCCACAC needs its PBM binding z-score filled in; supply it.
3.18

Entry TCTCGGAGCACACGAAAGGTCAGAGCTCGACATC needs its PBM binding z-score filled in; supply it.
2.41

Entry AGAATGAGCTTATTAAGATCAGGGAATTGCGGTC needs its PBM binding z-score filled in; supply it.
-0.273

Entry ATCTCTAGGTAAAAGTTCGGTGAATCCCGAGGAT needs its PBM binding z-score filled in; supply it.
0.583

Entry CAAACTAGGTCACCAAAGGTCAAAGTCGAATGAC needs its PBM binding z-score filled in; supply it.
5.17

Entry TCATATAGGTAATACAGGCGAAAGTCGGCATCTA needs its PBM binding z-score filled in; supply it.
-0.0703

Entry CCAGACAGGTGACAAGGTAACTCAGCCTCGATTA needs its PBM binding z-score filled in; supply it.
1.24

Entry ATCGAAAGGTCGTGATGTGAGTATACAGAAAGGC needs its PBM binding z-score filled in; supply it.
2.34

Entry GATGCAGGGTCAAGGCCAGAGTACGCGTATTGAT needs its PBM binding z-score filled in; supply it.
3.46

Entry TCTGCTCGGTCAGTTGGTCAGCTAACGAGCTGCC needs its PBM binding z-score filled in; supply it.
-0.381

Entry TCACCAAGGTGAAGGTCGTTGATCCCTCTGTAGA needs its PBM binding z-score filled in; supply it.
2.27

Entry ACTCGAAGGACAAAGGTCAGAGCTACGCCAGTGA needs its PBM binding z-score filled in; supply it.
3.02

Entry CGTCCAAGGTCAGCAGGGCAGTGAAAGCGACGTG needs its PBM binding z-score filled in; supply it.
3.61
